B1: Azoarcus group I ribozyme (parent)
chain: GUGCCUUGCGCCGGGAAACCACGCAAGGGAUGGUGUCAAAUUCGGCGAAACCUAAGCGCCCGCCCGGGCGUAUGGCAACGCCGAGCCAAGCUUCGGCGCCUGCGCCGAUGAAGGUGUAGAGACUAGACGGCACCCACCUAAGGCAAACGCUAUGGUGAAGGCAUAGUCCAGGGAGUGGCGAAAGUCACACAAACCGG

# Variants of: B1
# Test name: reverse-splicing fitness (ratio to wild type); higher = more active; in vitro selection; Mg2+ level not given
Hi there, I'd appreciate the recorded reverse-splicing fitness for every entry that follows.

Quote reverse-splicing fitness reported for C82G A120C C169G please.
0.00817

Quote reverse-splicing fitness reported for C82A A111U A120U A145G C150G C169G U176A please.
0.00885

Quote reverse-splicing fitness reported for C82G A111C A120U A145G C150A C169U U176A please.
0.00632

Quote reverse-splicing fitness reported for C82G A111U A120G C150G C169G U176A please.
0.0069

Quote reverse-splicing fitness reported for C82A A120G A145G C150G C169A U176A please.
0.0138

Quote reverse-splicing fitness reported for C82A A120G A145C C150U C169G U176C please.
0.0116

Quote reverse-splicing fitness reported for C82A A111U A120U A145C C150U U176A please.
0.00482

Quote reverse-splicing fitness reported for C82G A111C A145C C150A C169G please.
0.00856

Quote reverse-splicing fitness reported for C82A A111C A120G C150G C169A U176C please.
0.00996

Quote reverse-splicing fitness reported for A120U A145U C150G C169U U176C please.
0.0175

Quote reverse-splicing fitness reported for C82G A120G A145U C169A U176C please.
0.0199

Quote reverse-splicing fitness reported for A120G A145C C150A U176A please.
0.027

Quote reverse-splicing fitness reported for C82A A120C C150A U176G please.
0.00826

Quote reverse-splicing fitness reported for C82G A111C A120U C150U please.
0.0243

Quote reverse-splicing fitness reported for A111C A120G C150A C169G U176A please.
0.0175

Quote reverse-splicing fitness reported for C82U A111U A120C A145C C150U C169A please.
0.00709

Quote reverse-splicing fitness reported for C82U A111G A120U A145C C150G C169A please.
0.00238

Quote reverse-splicing fitness reported for C82G A111G A145C C169G U176C please.
0.0131

Quote reverse-splicing fitness reported for C82A A111U A120G A145G C169U U176C please.
0.0167

Quote reverse-splicing fitness reported for C82G A111C A145G C150G C169A U176G please.
0.00829

Quote reverse-splicing fitness reported for C82G A120U A145G C150G C169U U176A please.
0.00829

Quote reverse-splicing fitness reported for C82G A111G A120C C150U C169A U176G please.
0.00693

Quote reverse-splicing fitness reported for C82U A111U A145U C169A please.
0.00706

Quote reverse-splicing fitness reported for C82A A111U A120C A145U C150G C169G please.
0.00869

Quote reverse-splicing fitness reported for C82A A111U A120U A145U C150U U176A please.
0.00828

Quote reverse-splicing fitness reported for C82A A111C A120C A145U C150G U176C please.
0.00803

Quote reverse-splicing fitness reported for C82U A111U A120G A145C C150A please.
0.0064

Quote reverse-splicing fitness reported for C82A A120C C169A please.
0.0104

Quote reverse-splicing fitness reported for C82A A111U A120G A145U C150A U176C please.
0.0152

Quote reverse-splicing fitness reported for C82U A111U A120U A145U C150U C169U U176G please.
0.00227

Quote reverse-splicing fitness reported for C82G A111G A120U A145C C150A U176A please.
0.00245

Quote reverse-splicing fitness reported for C82G A111C C150U C169U U176A please.
0.015

Quote reverse-splicing fitness reported for C82A A120C A145U C150A U176A please.
0.0143

Quote reverse-splicing fitness reported for C82U A111U A120C A145G C169G please.
0.00779

Quote reverse-splicing fitness reported for C82G A120U C150U C169U U176C please.
0.00336

Quote reverse-splicing fitness reported for C82U A111U A120U A145C C169U U176G please.
0.00177

Quote reverse-splicing fitness reported for C82U A111C A120C C150U C169U U176C please.
0.0196

Data origin: the RNAGym collection of RNA variant scans (doi:10.1093/molbev/msab373)
